Ref: the supplement of paper PMC10567573

B1: PLD5 (parent)
chain: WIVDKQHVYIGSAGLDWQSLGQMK

Variants of: B1
Assay: protein stability index of a GFP-peptide fusion (GPS, HEK-293T) (PSI 1-6); higher = more stable;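 further: lentivirally expressed fusions sorted by FACS into six bins by GFP to DsRed ratio, PSI derived from sequencing read proportions per bin multiplied by bin number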
Conditions: c terminus: a fixed tail appended
True means recorded protein stability index is 2 or above; False means it is below 2.

Some solved entries appear below for comparison.
API: above_or_equal(metric=protein stability index, cutoff=2) for item "Y9K" False

API: above_or_equal(metric=protein stability index, cutoff=2) for item "S12D" False

API: above_or_equal(metric=protein stability index, cutoff=2) for item "D16G" True

API: above_or_equal(metric=protein stability index, cutoff=2) for item "G21P" False

API: above_or_equal(metric=protein stability index, cutoff=2) for item "D4A" False

API: above_or_equal(metric=protein stability index, cutoff=2) for item "G14Y" False

API: above_or_equal(metric=protein stability index, cutoff=2) for item "W17Q" True

API: above_or_equal(metric=protein stability index, cutoff=2) for item "V8D" False

API: above_or_equal(metric=protein stability index, cutoff=2) for item "S12N" False

API: above_or_equal(metric=protein stability index, cutoff=2) for item "W1Q" True

---
API: above_or_equal(metric=protein stability index, cutoff=2) for item "G14W" True

API: above_or_equal(metric=protein stability index, cutoff=2) for item "I2N" False

API: above_or_equal(metric=protein stability index, cutoff=2) for item "A13W" False

API: above_or_equal(metric=protein stability index, cutoff=2) for item "D16T" True

API: above_or_equal(metric=protein stability index, cutoff=2) for item "D16A" True

API: above_or_equal(metric=protein stability index, cutoff=2) for item "W1G" True
